Test system: C. albicans (ATCC 24433)
parameter measured: MIC50 (µg/mL)

Examples from the recorded data:
molecule	MIC50 (µg/mL)
CC(=O)N1CCN(c2ccc(OCC3COC(Cn4ccnc4)(c4ccc(Cl)cc4Cl)O3)cc2)CC1 (centres unmarked) [Ketoconazole, reference compound]	0.78
CCN1CCN(c2ccc(C=CC(=O)c3ccc(-n4ccnc4)cc3)cc2)CC1	50
CN1CCN(c2ccc(C=CC(=O)c3ccc(-n4ccnc4)cc3)cc2)CC1	50

1: Cc1ccc(Sc2ccc(C=CC(=O)c3ccc(-n4ccnc4)cc3)cc2)cc1
2: O=C(C=Cc1ccc(N2CCCC2)cc1)c1ccc(-n2ccnc2)cc1
Request: From the items above, decide which of 1 and 2 has the lower MIC50 reading. Choose, then provide that item's label.
Result: 1
(1: 3.12 µg/mL, 2: 50 µg/mL)

Source listed as paper PMC6017838.
